- Tested on: mouse S180 sarcoma model
- ASSAY_SUMMARY: Inhibition of tumor growth in vivo (mouse S180 sarcoma model)
- Design: species or system male ICR mice
- PROTOCOL_CONDITIONS: Table 2; 10 μmol/kg, ip, 7 consecutive days
ASSAY_ENDPOINT: Tumor Inhibition Rate (%)
Entry rule: numbers only, all in %.

>>> experimental_value("CN(C)c1ccc2cc(C(=O)NC(CCCNC(=N)CCl)C(=O)NCc3ccccc3)ccc2c1 (stereo not shown) [YW3-56, reference compound]")
44.39

Look up and report measured Tumor Inhibition Rate for this entry: CS(=O)(=O)NCCNc1ccc([N+](=O)[O-])c2nonc12 [ZD-C, NBD-N-(2-aminoethyl)methanesulfonamide]
29.46

---

- System: MCF-7 (human breast cancer cells)
- ASSAY_SUMMARY: In vitro anti-tumor cell proliferation activity (MTT method), MCF-7
- Format: cell-based
- PROTOCOL_CONDITIONS: MCF-7; 48 h; Mean ± SD; read-out: IC50 values of in vitro anti-cell proliferation activity
pIC50: −log10 of the molar value. Structures can show the parent of a compound that is named as a salt.
ASSAY_ENDPOINT: pIC50

// worked examples, pIC50 included
>>> experimental_value("O=C1NCCC[C@@H]1Nc1ccc([N+](=O)[O-])c2nonc12")
"< 4.00"
>>> experimental_value("CS(=O)(=O)NCCNc1ccc([N+](=O)[O-])c2nonc12 [ZD-C, NBD-N-(2-aminoethyl)methanesulfonamide]")
"< 4.00"

Answer with reported pIC50 of NCCCC[C@H](Nc1ccc([N+](=O)[O-])c2nonc12)C(=O)NCc1ccccc1 [ZD-F, NBD-Lys(HCl)-NBzl]
< 4.00

---

- Tested on: mouse S180 sarcoma model
- ASSAY_SUMMARY: Inhibition of tumor growth in vivo (mouse S180 sarcoma model)
- Design: species or system male ICR mice
- PROTOCOL_CONDITIONS: Table 2; 10 μmol/kg, ip, 7 consecutive days
ASSAY_ENDPOINT: Tumor Inhibition Rate

Sample answers from the record:
>>> experimental_value("NCCC[C@H](Nc1ccc([N+](=O)[O-])c2nonc12)C(=O)NCc1ccccc1")
"25.82%"
>>> experimental_value("O=C1NCCC[C@@H]1Nc1ccc([N+](=O)[O-])c2nonc12")
"25.77%"
>>> experimental_value("N=C(CCl)NCCC[C@H](Nc1ccc([N+](=O)[O-])c2nonc12)C(=O)NCc1ccccc1")
"40.01%"
>>> experimental_value("CC(C)C[C@H](Nc1ccc([N+](=O)[O-])c2nonc12)C(=O)N[C@H](C(=O)OCc1ccccc1)C(C)C")
"44.60%"

Shift focus to the following entry.
Recall the reported Tumor Inhibition Rate of `N=C(NCCC[C@H](Nc1ccc([N+](=O)[O-])c2nonc12)C(=O)OCc1ccccc1)N[N+](=O)[O-]` when tested on mouse S180 sarcoma model.
36.19%

Data provenance is patent US12673120B2.
